Target: LasR (Pseudomonas aeruginosa)
Construct: expressed in transfected cells; host or cells: E. coli DH5α (printed DHSα) co-transformed with pJN105L and pSC11
Sequence (P25084 whole entry): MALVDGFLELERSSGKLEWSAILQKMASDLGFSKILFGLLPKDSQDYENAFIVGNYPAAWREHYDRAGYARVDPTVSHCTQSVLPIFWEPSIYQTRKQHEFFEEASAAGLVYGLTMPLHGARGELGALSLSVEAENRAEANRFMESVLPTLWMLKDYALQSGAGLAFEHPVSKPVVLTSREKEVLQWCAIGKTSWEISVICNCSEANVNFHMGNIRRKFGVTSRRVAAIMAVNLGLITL
Assay: LasR reporter gene assay (E. coli reporter strain, luminescence, competition with OdDHL)
Assay type: cell-based
Details: compound 1 μM or 10 μM in the presence of 1 μM OdDHL (compound 1a)
readout-kind: LasR-antagonistic activity / LasR-binding affinity (RLU ratio), in words

- compound: "CCCCCC(O)CC(=O)CCc1ccc(O)c(OC)c1 (racemic) [Compound 6]"
  result: "slightly more potent"
- compound: "CCCCCCCC(O)CC(=O)CCc1ccc(O)c(OC)c1 (racemic) [Compound 8]"
  result: "slightly more potent"
